Data credit: ChEMBL document CHEMBL3124761

- Tested on: Trypanosoma cruzi
- measurement.notes: Antitrypanosomal activity against epimastigote stage of Trypanosoma cruzi IRHOD/CO/2008/SN3 assessed as parasite growth inhibition after 72 hrs by Neubauer hemocytometric chamber analysis
- Type: functional, organism-based
- condition.set: IRHOD/CO/2008/SN3, 72 h
readout.label: IC50 (µM)
Please respond with the number in µM and leave the unit unwritten.

Recorded results for 8 compounds are shown here.
CN(C)CCCNc1c(NCCCNc2c(NCCCN(C)C)c(=O)c2=O)c(=O)c1=O :: 96.2
CCCCCCCCCCCCCCCCNc1c(NCC[N+](C)(C)C)c(=O)c1=O :: 44.9
O=c1c(O)c(Nc2ccccc2O)c1=O :: 50.8
CCCCNc1c(NCC[N+](C)(C)C)c(=O)c1=O :: 107
CN(CCCNc1c(NCCC[N+](C)(C)C)c(=O)c1=O)CCCNc1c(NCCC[N+](C)(C)C)c(=O)c1=O.[I-].[I-] :: 18.5
CCOC(=O)c1ccc(Nc2c(O)c(=O)c2=O)cc1 :: 26.3
CCCCNc1c(NCCCC(=O)O)c(=O)c1=O :: 17.3
CCCCNc1c(NCCN(C)C)c(=O)c1=O :: 10.5

Exercise: Observed IC50 on Trypanosoma cruzi for `CN(C)c1ccc(Nc2c(O)c(=O)c2=O)cc1` , please.
Solution: 15.9

Exercise: Observed IC50 on Trypanosoma cruzi for `CCCCNc1c(NCCCN(CCCC)CCCC)c(=O)c1=O` , please.
Solution: 21.1

Exercise: Observed IC50 on Trypanosoma cruzi for `C[N+](C)(C)CCNc1c(NCc2cccc(CNc3c(NCC[N+](C)(C)C)c(=O)c3=O)c2)c(=O)c1=O` , please.
Solution: 119

Exercise: Observed IC50 on Trypanosoma cruzi for `O=c1c(NCc2ccccc2)c(NC2CCN(Cc3ccccc3)CC2)c1=O` , please.
Solution: 96.9

Exercise: Observed IC50 on Trypanosoma cruzi for `CN1CCCNc2c(c(=O)c2=O)NCCCN(C)CCCNc2c(c(=O)c2=O)NCCC1` , please.
Solution: 21.8

Exercise: Observed IC50 on Trypanosoma cruzi for `NCc1ccc(Nc2c(O)c(=O)c2=O)cc1` , please.
Solution: 89.1

Exercise: Observed IC50 on Trypanosoma cruzi for `CCCCNc1c(N(C)CCCN(C)C)c(=O)c1=O` , please.
Solution: 9.4

Exercise: Observed IC50 on Trypanosoma cruzi for `CCCCCCCCCCCCCCCCNc1c(NCCN(C)C)c(=O)c1=O` , please.
Solution: 49.8

Exercise: Observed IC50 on Trypanosoma cruzi for `C[N+](C)(C)CCNc1c(NCc2ccccc2)c(=O)c1=O` , please.
Solution: 60.8

Exercise: Observed IC50 on Trypanosoma cruzi for `CCCCNc1c(NCC(=O)O)c(=O)c1=O` , please.
Solution: 35.7

###

- measurement.notes: Selectivity index, ratio of IC50 for African green monkey Vero cells to IC50 for amastigote stage of Trypanosoma cruzi IRHOD/CO/2008/SN3 infected in African green monkey Vero cells
- Assay type: toxicity, cell-based
- condition.set: read-out: Ratio IC50
Give true (1) when the value for selectivity ratio is at least 4. Give false (0) when it is less.

# count of solved cases: 8
CN1CCCNc2c(c(=O)c2=O)NCCCN(C)CCCNc2c(c(=O)c2=O)NCCC1 :: false (0)
NCc1ccc(Nc2c(O)c(=O)c2=O)cc1 :: false (0)
CCCCNc1c(NCC(=O)O)c(=O)c1=O :: false (0)
C[N+](C)(C)CCNc1c(NCc2cccc(CNc3c(NCC[N+](C)(C)C)c(=O)c3=O)c2)c(=O)c1=O :: false (0)
CCCCCCCCCCCCCCCCNc1c(NCC[N+](C)(C)C)c(=O)c1=O :: true (1)
CN(CCCNc1c(NCCC[N+](C)(C)C)c(=O)c1=O)CCCNc1c(NCCC[N+](C)(C)C)c(=O)c1=O.[I-].[I-] :: true (1)
CCCCNc1c(N(C)CCCN(C)C)c(=O)c1=O :: true (1)
CN(C)CCCNc1c(NCCCNc2c(NCCCN(C)C)c(=O)c2=O)c(=O)c1=O :: false (0)

Exercise: Reported selectivity ratio reaches at least 4 for `O=c1c(NCc2ccccc2)c(NC2CCN(Cc3ccccc3)CC2)c1=O` ?
Solution: true (1)

Exercise: Reported selectivity ratio reaches at least 4 for `O=c1c(O)c(Nc2ccccc2O)c1=O` ?
Solution: true (1)

###

As shown below, each of these compounds has a reported Activity value.
- System: Mus musculus
- measurement.notes: Toxicity in BALB/c albino mouse infected with blood trypomastigote stage of Trypanosoma cruzi assessed as change in urea level in serum at 25 mg/kg, ip administered on day 7 to 12 post-infection measured after day 120 relative to control
- Format: organism-based
- Design: dose 25 mg/kg, route intraperitoneal
- condition.set: in vivo

Recorded results for 2 compounds are shown here.
CCCCNc1c(NCCCN(CCCC)CCCC)c(=O)c1=O :: < 10%
CCCCNc1c(NCCN(C)C)c(=O)c1=O :: < 10%

Exercise: Activity lookup needed for `CCCCNc1c(N(C)CCCN(C)C)c(=O)c1=O` , thanks.
Solution: < 10%

Exercise: Activity lookup needed for `CN(CCCNc1c(NCCC[N+](C)(C)C)c(=O)c1=O)CCCNc1c(NCCC[N+](C)(C)C)c(=O)c1=O.[I-].[I-]` , thanks.
Solution: < 10%

###

- Tested on: Mus musculus
- measurement.notes: Toxicity in BALB/c albino mouse infected with blood trypomastigote stage of Trypanosoma cruzi assessed as increase in AST/GOT level in serum at 25 mg/kg, ip administered on day 7 to 12 post-infection measured after day 120 relative to control
- Type: organism-based
- Parameters: dose 25 mg/kg, route intraperitoneal
- condition.set: in vivo
As shown below, each of these compounds has a reported Activity value.
Write down the value, and be sure its unit follows.

Recorded results for 3 compounds are shown here.
CCCCNc1c(NCCN(C)C)c(=O)c1=O :: 40%
CCCCNc1c(N(C)CCCN(C)C)c(=O)c1=O :: 10%
CCCCNc1c(NCCCN(CCCC)CCCC)c(=O)c1=O :: 40%

Turning now to a further record.
Exercise: Activity lookup needed for `CN(CCCNc1c(NCCC[N+](C)(C)C)c(=O)c1=O)CCCNc1c(NCCC[N+](C)(C)C)c(=O)c1=O.[I-].[I-]` , thanks.
Solution: 40%

###

- measurement.notes: Selectivity index, ratio of IC50 for African green monkey Vero cells to IC50 for epimastigote stage of Trypanosoma cruzi IRHOD/CO/2008/SN3
- Assay type: toxicity, cell-based
- condition.set: read-out: Ratio IC50
Dear colleague, classification is by selectivity ratio, with ranges listed here: band A: < 0.8; band B: ≥ 0.8 and < 4; band C: ≥ 4

# count of solved cases: 8
CN(CCCNc1c(NCCC[N+](C)(C)C)c(=O)c1=O)CCCNc1c(NCCC[N+](C)(C)C)c(=O)c1=O.[I-].[I-] :: band C
CCCCNc1c(NCCCN(CCCC)CCCC)c(=O)c1=O :: band C
CCCCNc1c(NCC(=O)O)c(=O)c1=O :: band B
O=c1c(NCc2ccccc2)c(NC2CCN(Cc3ccccc3)CC2)c1=O :: band B
CCCCNc1c(NCCCC(=O)O)c(=O)c1=O :: band B
CCCCCCCCCCCCCCCCNc1c(NCC[N+](C)(C)C)c(=O)c1=O :: band B
O=c1c(O)c(Nc2ccccc2O)c1=O :: band C
C[N+](C)(C)CCNc1c(NCc2cccc(CNc3c(NCC[N+](C)(C)C)c(=O)c3=O)c2)c(=O)c1=O :: band A

Exercise: Class (by measured selectivity ratio) for `CCCCNc1c(NCC[N+](C)(C)C)c(=O)c1=O`
Solution: band A

Exercise: Class (by measured selectivity ratio) for `CCCCNc1c(N(C)CCCN(C)C)c(=O)c1=O`
Solution: band C

Exercise: Class (by measured selectivity ratio) for `NCc1ccc(Nc2c(O)c(=O)c2=O)cc1`
Solution: band A

Exercise: Class (by measured selectivity ratio) for `CN1CCCNc2c(c(=O)c2=O)NCCCN(C)CCCNc2c(c(=O)c2=O)NCCC1`
Solution: band C

Exercise: Class (by measured selectivity ratio) for `C[N+](C)(C)CCNc1c(NCc2ccccc2)c(=O)c1=O`
Solution: band B

Exercise: Class (by measured selectivity ratio) for `CCCCCCCCCCCCCCCCNc1c(NCCN(C)C)c(=O)c1=O`
Solution: band B

Exercise: Class (by measured selectivity ratio) for `CCCCNc1c(NCCN(C)C)c(=O)c1=O`
Solution: band C

Exercise: Class (by measured selectivity ratio) for `CN(C)CCCNc1c(NCCCNc2c(NCCCN(C)C)c(=O)c2=O)c(=O)c1=O`
Solution: band A

###

- System: Vero
- measurement.notes: Cytotoxicity against African green monkey Vero cells assessed as cell viability after 72 hrs by propidium iodide/fluorescein diacetate staining-based flow cytometric analysis
- condition.set: Chlorocebus sabaeus
As shown below, each of these compounds has a reported pIC50 value.
Scale for pIC50: -log10 of concentration given in mol/L; no unit attached.

Recorded results for 2 compounds are shown here.
O=c1c(NCc2ccccc2)c(NC2CCN(Cc3ccccc3)CC2)c1=O :: 3.47
O=c1c(O)c(Nc2ccccc2O)c1=O :: 3.64

Exercise: pIC50 lookup needed for `CN1CCCNc2c(c(=O)c2=O)NCCCN(C)CCCNc2c(c(=O)c2=O)NCCC1` , thanks.
Solution: 3.96

Exercise: pIC50 lookup needed for `C[N+](C)(C)CCNc1c(NCc2cccc(CNc3c(NCC[N+](C)(C)C)c(=O)c3=O)c2)c(=O)c1=O` , thanks.
Solution: 4.14

Exercise: pIC50 lookup needed for `CN(C)c1ccc(Nc2c(O)c(=O)c2=O)cc1` , thanks.
Solution: 4.89

Exercise: pIC50 lookup needed for `C[N+](C)(C)CCNc1c(NCc2ccccc2)c(=O)c1=O` , thanks.
Solution: 4.13

Exercise: pIC50 lookup needed for `CCCCNc1c(NCCCN(CCCC)CCCC)c(=O)c1=O` , thanks.
Solution: 3.83

Exercise: pIC50 lookup needed for `CCCCNc1c(N(C)CCCN(C)C)c(=O)c1=O` , thanks.
Solution: 3.34

Exercise: pIC50 lookup needed for `CN(CCCNc1c(NCCC[N+](C)(C)C)c(=O)c1=O)CCCNc1c(NCCC[N+](C)(C)C)c(=O)c1=O.[I-].[I-]` , thanks.
Solution: 3.52

Exercise: pIC50 lookup needed for `CCCCNc1c(NCCCC(=O)O)c(=O)c1=O` , thanks.
Solution: 4.67

Exercise: pIC50 lookup needed for `CCCCCCCCCCCCCCCCNc1c(NCC[N+](C)(C)C)c(=O)c1=O` , thanks.
Solution: 3.82

Exercise: pIC50 lookup needed for `CCCCNc1c(NCC[N+](C)(C)C)c(=O)c1=O` , thanks.
Solution: 4.24

Exercise: pIC50 lookup needed for `CCCCNc1c(NCC(=O)O)c(=O)c1=O` , thanks.
Solution: 4.26
